- measurementTarget: human muscarinic M2 receptor (Homo sapiens, UniProt P08172)
- Sequence (P08172 1-466): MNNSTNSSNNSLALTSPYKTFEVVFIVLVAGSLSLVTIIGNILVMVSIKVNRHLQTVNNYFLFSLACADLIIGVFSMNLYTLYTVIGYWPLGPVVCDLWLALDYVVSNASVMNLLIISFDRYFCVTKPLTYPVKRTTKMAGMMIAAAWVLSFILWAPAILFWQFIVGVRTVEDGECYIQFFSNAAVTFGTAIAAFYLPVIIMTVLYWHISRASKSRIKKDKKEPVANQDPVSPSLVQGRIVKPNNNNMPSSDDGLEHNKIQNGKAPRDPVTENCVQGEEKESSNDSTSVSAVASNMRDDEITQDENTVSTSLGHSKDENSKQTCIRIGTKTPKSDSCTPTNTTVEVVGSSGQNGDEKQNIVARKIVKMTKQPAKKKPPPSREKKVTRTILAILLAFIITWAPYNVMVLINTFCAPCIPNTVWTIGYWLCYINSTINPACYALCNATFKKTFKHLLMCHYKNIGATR
- methodDescription: Alphascreen Surefire phospho-ERK1/2 functional assay, M2
- Format: cell-based
- experimentalContext: CHO cells stably expressing human M2; phospho-ERK1/2; read-out: pEC50 M2 (converted)
metricName: EC50

Query :: Form: Entry = CCOC(=O)N[C@H]1CCN(C2CCC(C#N)(c3ccc(F)cc3)CC2)C1 (single isomer, unassigned) [1-4 Isomer 2] | System = human muscarinic M2 receptor (Homo sapiens, UniProt P08172) | EC50 = ____
Result :: > 20 µM

Query :: Form: Entry = CCOC(=O)N1CCCN(C2CCC3(CC2)C(=O)Nc2ccc(OC)cc23)CC1 (single isomer, unassigned) [4-12 isomer 1] | System = human muscarinic M2 receptor (Homo sapiens, UniProt P08172) | EC50 = ____
Result :: > 20 µM

Query :: Form: Entry = Cc1noc([C@H]2CC[C@@H](NC3CCC(C#N)(c4ccccn4)CC3)C2)n1 (single isomer, unassigned) [19-1 Isomer 2] | System = human muscarinic M2 receptor (Homo sapiens, UniProt P08172) | EC50 = ____
Result :: > 20 µM

Query :: Form: Entry = CCOC(=O)N1CCCN(C2CCC(C#N)(c3ccncc3)CC2)CC1 (mixture of isomers) [3-12 mixture of isomers] | System = human muscarinic M2 receptor (Homo sapiens, UniProt P08172) | EC50 = ____
Result :: > 20 µM

Query :: Form: Entry = CCOC(=O)N[C@H]1CCN(C2CCC(C#N)(c3cccc(Cl)c3)CC2)C1 (single isomer, unassigned) [1-10 Isomer 2] | System = human muscarinic M2 receptor (Homo sapiens, UniProt P08172) | EC50 = ____
Result :: > 20 µM

Query :: Form: Entry = CCOC(=O)N1CCCN(C2CCC(c3nc(CC)c(C)[nH]3)CC2)CC1 (single isomer, unassigned) [5-1 Isomer 2] | System = human muscarinic M2 receptor (Homo sapiens, UniProt P08172) | EC50 = ____
Result :: > 20 µM

Query :: Form: Entry = CCOC(=O)N1CCCN(C2CCC(C#N)(c3ccc(Cl)cn3)CC2)CC1 (mixture of isomers) [3-16 mixture of isomers] | System = human muscarinic M2 receptor (Homo sapiens, UniProt P08172) | EC50 = ____
Result :: > 20 µM
